MEASURE: melting point

Cc1ccc(COC(C)CN(O)C(N)=O)s1 (centres undefined)	84 to 85 °C
Cc1cc(Br)ccc1C(=O)N=CN(C)C	87 to 89 °C
O=C(Nc1ccc(O)cc1)c1ccc(OC2CCCCO2)cc1 (centres undefined)	173 to 174 °C
COC(=O)Nc1cccc2c1C(=O)C1(O)c3ccc(C(C)C)cc3OC21O (centres undefined)	96 to 99 °C
CCOC(=O)C=Cc1c(-c2ccccc2)nn2ccccc12	54 to 55 °C

// field: melting point; key: COc1ccc(CN(C)CCOc2ccc(NC(=O)c3cccc4c(=O)cc(-c5ccccc5)[nH]c34)cc2)cc1OC ; value = 175 °C

The reported value for CCOCc1cc(COc2cc(C)nc(C)c2OC)ccc1-c1ccccc1S(=O)(=O)Nc1noc(C)c1C in terms of melting point is 78 to 82 °C

The recorded melting point for CN1C(=O)C(N)=C(C#N)C1=O is 284 °C

Entry CCCCCCCCCC(C)NC(=O)C=C(C)c1cccc(NC(=O)CCCC(=O)O)c1 (centres undefined) — recorded melting point = 115 to 118 °C

// melting point value for CCc1nc(CC)c(CO)c(-c2ccccc2)c1C=C(C)C : 103 to 104 °C

The value of melting point measured for the molecule CC(=O)NNC(=O)c1ccc(Br)c(C)c1 turned out to be 186 to 187 °C

CC(=O)Oc1c(C)c(C)c2c(c1C)CCC(C)(O)O2 (centres undefined) has a reported melting point of 127 to 132 °C

melting point in this record for COc1nc(Cl)c(-c2c(F)cc(F)cc2F)c(N[C@@H](C)C(F)(F)F)n1 : 121 to 129 °C

response.value for COc1ccc2c(c1)c(-c1[nH]c3ncccc3c1C)cn2C (field: melting point) = 237 °C
